Value source: PubChem BioAssay (NCI)

Tested on: HOP-92 NSCLC
Assay: NCI-60 one-dose screen, 48 h
Conditions: 10 µM unless noted
Compounds without any hit were thinned out: in the full panel of roughly 83,000, 20% have a hit. Activity calls are given as the source filed them. How the source made its calls: active means growth percent below 10; inactive means the rest.
One label from this list, please: 1 = active, 0 = inactive

| chemical smiles | answer label |
| --- | --- |
| COc1cc(/C=N/Nc2ccnc3cc(Cl)ccc23)cc(OC)c1O | 1 |

Can you look up the reported call for Cn1cc2c(c1)-c1c(sc3nc(-c4ccc(NC(=O)Nc5cc(C(C)(C)C)on5)cc4)cn13)CC2 for me? 0

Can you look up the reported call for COc1ccc([C@@H]2[C@@H](O)C(=O)N2c2cc(OC)c(OC)c(OC)c2)cc1 for me? 1

Can you look up the reported call for CCOC(=O)c1c(Nc2ccccc2)nn2c(-c3ccc(Br)cc3)ccnc12 for me? 0

Can you look up the reported call for COc1ccc(N2CCN(C(=O)CSc3ccc(-c4nc5cc(C)c(C)cc5[nH]4)cn3)CC2)cc1 for me? 0

----------
Test system: SR leukemia
Assay: NCI-60 one-dose screen, 48 h
Conditions: 10 µM unless noted
The panel holds about 83,000 compounds, 20% with a hit somewhere; the sample as a whole holds those more often. Calls of active or inactive are those of the source. Rule for the calls: active = growth percent below 10; inactive = the rest.
One label from this list, please: active, inactive

Some entries whose results are on file:
| compound | answer label |
| --- | --- |
| O=S(=O)(Nc1ccc2c(c1)OC(F)(F)O2)c1ccc(-c2cnc(C3CC3)o2)cc1 | inactive |
| CN1CCN(c2nc(-c3cnc4ccccc4n3)cc3ccccc23)CC1 | active |
| CCNCc1c(-c2cccc(OC(F)(F)F)c2)[nH]c2ccc(N3CCCC3)cc2c1=O | active |
| Cc1ccc(Cc2cnc(NC(=O)/C(C#N)=C/c3ccc(-c4ccc(Cl)cc4)o3)s2)cc1 | inactive |
| CC(C)=CCc1c(O)c(CC=C(C)C)c2c(c1O)C(=O)C1=C[C@@H]3C[C@H]4C(C)(C)O[C@@](C/C=C(\C)C(=O)O)(C3=O)[C@@]14O2 | active |
| O=C1Nc2cc(OC(F)(F)F)ccc2Oc2ccc(-c3ccnc(N4CCNCC4)c3)cc21 | active |
| CC(C)C[C@H]1C(=O)O[C@H](C(C)C)C(=O)N(C)[C@@H](C(C)C)C(=O)O[C@H](C(C)C)C(=O)N(C)[C@@H](C(C)C)C(=O)O[C@H](C(C)C)C(=O)N1C | inactive |
| O=C(Nc1ccccc1)Nc1nc2ccc([N+](=O)[O-])cc2s1 | active |
| CN1CCN(c2ccc3c(C(N)=O)c(NC(=O)c4ccc(C(C)(C)C)cc4)sc3c2)CC1 | inactive |
| CC[C@@](C)(NC(=O)C(C)(C)NC(=O)[C@@H](NC(=O)[C@@H]1CCCN1C(=O)C(C)(C)NC(=O)[C@H](CC(C)C)NC(=O)CNC(=O)C(C)(C)NC(=O)[C@@H](NC(=O)C(C)(C)NC(=O)[C@H](CCC(N)=O)NC(=O)[C@H](C)NC(=O)C(C)(C)NC(=O)[C@H](C)NC(=O)C(C)(C)NC(=O)[C@@H]1CCCN1C(=O)C(C)(C)NC(C)=O)C(C)C)C(C)C)C(=O)N[C@@H](CCC(N)=O)C(=O)N[C@@H](CCC(N)=O)C(=O)N[C@H](CO)Cc1ccccc1 | inactive |

Note: attention shifts to another entry.
Can you look up the reported call for O=C1c2c(c3c4cccnc4[nH]c3c3ccc4ccccc4c23)C(=O)N1CCN1CCCCC1 for me? inactive
